- TARGET ENTITY: HLA-B*51:01
- ASSAY OVERVIEW: IEDB peptide-MHC binding, purified MHC/competitive/fluorescence; filed as Kd, often an IC50 or EC50 that approximates it; bounds were set here for any values at or beyond the usual limits of such assays
- CONDITION: source organism: Hantaan virus 76-118
QUANTITY MEASURED: Kd

Lab note: `IRKPKHLYV` gave Kd of ≥ 20 µM

----------
- TARGET ENTITY: HLA-B*27:05
- ASSAY OVERVIEW: IEDB peptide-MHC binding, purified MHC/direct/fluorescence; filed as Kd, often an IC50 or EC50 that approximates it; bounds were set here for any values at or beyond the usual limits of such assays
- CONDITION: source organism: Camelpox virus M-96
QUANTITY MEASURED: Kd

LLRDKDGVY	≥ 20 µM

The record that follows has no Kd shown yet.
Lab note: `WENGFKVVL` gave Kd of ≥ 20 µM
